// pKd lookup, one value per entry
biological target: T1, hCD40-His (Human CD40 protein having a His-Tag, Beijing ACROBiosystems Co. Ltd., Cat #: CD0-H5228) (human, UniProt P25942 21-193); test: SPR, Biacore 8K, Protein A chip, CD40-His as analyte, 1:1 Langmuir fit
T1 construct: Bought protein; not shown: His tag
T1 sequence (P25942 21-193 limits assumed): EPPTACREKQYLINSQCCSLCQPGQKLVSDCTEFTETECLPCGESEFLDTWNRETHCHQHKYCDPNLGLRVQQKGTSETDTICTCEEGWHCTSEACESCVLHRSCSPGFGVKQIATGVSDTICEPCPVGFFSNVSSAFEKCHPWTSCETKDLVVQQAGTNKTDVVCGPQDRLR
pKd: −log10 of the molar value.
recordedMetric: pKd

binder	resultNumber
12B5-IgG4-FLAA (antibody, V domains shown, Rest: human IgG4 constant regions with FLAA mutations (F234A and L235A, EU numbering); copies: 2 + 2) VH: QVQLVQSGPGLVKPSETLSLTCTVSGGSISYYYWSWIRQPPGKGLEWIGHISYSGSTNYNPSLKSRVTISEDTSKKQFSLKLDSVTAADTAVYYCAGGIVGARRGFDFWGQGTLVTVSS VL: EIVMTQSPATLSLSPGERATLSCRASQSVSNNLAWYQQKPGQAPRLLIYDASNRAADIPARFSGSGSGTDFTLTISSLEPEDFAVYYCQQRNNWPPTFGQGTKVEIKR	9.13
Bleselumab analog (antibody, human IgG4, V domains shown) VH: QLQLQESGPGLLKPSETLSLTCTVSGGSISSPGYYGGWIRQPPGKGLEWIGSIYKSGSTYHNPSLKSRVTISVDTSKNQFSLKLSSVTAADTAVYYCTRPVVRYFGWFDPWGQGTLVTVSS VL: AIQLTQSPSSLSASVGDRVTITCRASQGISSALAWYQQKPGKAPKLLIYDASNLESGVPSRFSGSGSGTDFTLTISSLQPEDFATYYCQQFNSYPTFGQGTKVEIKR	8.80
2F8-IgG4-FLAA (antibody, V domains shown, Rest: human IgG4 constant regions with FLAA mutations (F234A and L235A, EU numbering)) VH: EVQLVQSGGGVVQPGRSLRLSCAASGFSFSSYAMHWVRQVPGKGLEWVSVISYDGDNKYHAESVKGRFTISRDNSKNILYLQMNSLRPEDTAVYYCARRGTVTNYYSYSGLDVWGQGTTVTVSS VL: DIQLTQSPLSLPVTPGEPASISCRSSQSLLYSNGKNYLDWYLQKPGQSPQLLIYLASNRASGVPDRFSGSGSGTDFTLKISRVEAEDVGVYFCMQALQTPRTFGQGTKVEIKR	9.45
6A4-IgG4-FLAA (antibody, V domains shown, Rest: human IgG4 constant regions with FLAA mutations (F234A and L235A, EU numbering)) VH: QVQLVQSGGGLVQPGGSLRLSCAASGFTFSNYVMSWVRQAPGKGLEWVSTIRGSGISTYYTDSVKGRFTTSRDNPKNTLFLQMSSLRAEDTAVYYCAKGIVGATTPFDYWGQGTLVTVSS VL: EIVLTQSPATLSLSPGERATLSCRASQSVRSFLAWYQQKPGQAPRLLIYETSNRATGIPARFSGSGSGTDFTLTISSLEPEDFAVYYCQQRSDWPPTFGQGTKVEIKR	8.78
